- test description: Half life in iv dosed Sprague-Dawley rat
- Assay type: ADME, organism-based
- test settings: in vivo

{"columns": ["molecule", "half-life (h)"],
 "data": [
  ["Cc1csc2c(-n3nc(Nc4ccc(N5CCN(C6CC7CCC6C7)CC5)cc4)nc3N)nc(Cl)nc12 (racemic)", 4.9],
  ["Nc1nc(Nc2ccc(N3CCN(C4CC5CCC4C5)CC3)cc2)nn1-c1ncnc2ccc(F)cc12 (racemic)", 2.3],
  ["Nc1nc(Nc2ccc(N3CCN(C4CC5CCC4C5)CC3)cc2)nn1-c1nccc2ccccc12 (racemic)", 2.3],
  ["COc1cc2ncnc(-n3nc(Nc4ccc(N5CCN(C6CC7CCC6C7)CC5)c(Cl)c4)nc3N)c2cc1OC (centres undefined)", 2.7]
]}
